Assay read-out IC50; system under study: Chromobox protein homolog 7 (Homo sapiens, UniProt O95931).
Non-standard residues stand in square brackets, D forms with d. Residues, ends and D or L forms follow the SMILES beside them. Lys(Me3) = C[N+](C)(C)CCCC[C@H](N)C(=O)O; Cha = N[C@@H](CC1CCCCC1)C(=O)O; Gly(cPr) = N[C@H](C(=O)O)C1CC1
Measured Endpoint: IC50 (µM)

[A] CC(=O)N[C@@H](Cc1ccccc1)C(=O)N[C@@H](C)C(=O)N[C@@H](CC1CCCCC1)C(=O)N[C@@H](CCCC[N+](C)(C)C)C(=O)N[C@@H](CO)C(N)=O (Ac-FA[Cha][Lys(Me3)]S-NH2)
[B] CC(=O)N[C@@H](Cc1ccccc1)C(=O)N[C@@H](C)C(=O)N[C@@H](CC(C)C)C(=O)N[C@@H](CCCC[N+](C)(C)C)C(=O)O (Ac-FAL[Lys(Me3)]-OH)
In: Param metric = IC50; output whichever of A , B has the minimum value. Refer to your chosen entry by its label in the reply.
Out: A
(A: 8.8 µM, B: 560 µM)

[I] CC(=O)N[C@@H](Cc1ccccc1)C(=O)N[C@@H](C)C(=O)N[C@@H](Cc1c[nH]c2ccccc12)C(=O)N[C@@H](CCCC[N+](C)(C)C)C(=O)N[C@@H](CO)C(N)=O (Ac-FAW[Lys(Me3)]S-NH2)
[II] CC(=O)N[C@@H](Cc1ccccc1)C(=O)N[C@@H](C)C(=O)N[C@H](C(=O)N[C@@H](CCCC[N+](C)(C)C)C(=O)N[C@@H](CO)C(N)=O)C1CC1 (Ac-FA[Gly(cPr)][Lys(Me3)]S-NH2)
In: IC50 comparison. Which is larger, I or II ? Indicate your choice by writing its label.
Out: II

----------
Target: Chromobox protein homolog 7 (Homo sapiens, UniProt O95931)
Sequence (O95931 whole entry): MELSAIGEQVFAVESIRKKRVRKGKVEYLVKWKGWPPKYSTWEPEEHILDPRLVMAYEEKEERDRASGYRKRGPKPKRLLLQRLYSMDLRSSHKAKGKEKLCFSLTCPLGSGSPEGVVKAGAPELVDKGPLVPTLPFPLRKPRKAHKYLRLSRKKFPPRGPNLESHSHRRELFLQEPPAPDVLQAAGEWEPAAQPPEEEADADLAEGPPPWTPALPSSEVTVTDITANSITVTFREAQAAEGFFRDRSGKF
pKd: −log10 of the molar value. Starred links: 1 amine or outer side, 2 acyl side, 3 side chain; linkers in the order of their positions; H or OH if unused. Non-standard residues stand in square brackets, D forms with d. Residues, ends and D or L forms follow the SMILES beside them. *: point of attachment. Benzoyl(4-CO2Me) = COC(=O)c1ccc(C(=O)*)cc1; Lys(Me3) = C[N+](C)(C)CCCC[C@H](N)C(=O)O; Benzoyl(4-Br) = O=C(c1ccc(Br)cc1)*; Ethylenediamine = C(CN[*:2])N[*:1]; Gly(cPent) = N[C@H](C(=O)O)C1CCCC1; NHCH(CH2OH)2 = OCC(CO)N*
Measured Endpoint: pKd

As a guide, the following entries are already answered.
C[C@H](NC(=O)Cc1ccccc1)C(=O)N[C@H](C(=O)N[C@@H](CCCC[N+](C)(C)C)C(=O)NC(CO)CO)C1CCCC1 = 5.39
COC(=O)c1ccc(C(=O)N[C@@H](Cc2ccccc2)C(=O)N[C@@H](C)C(=O)N[C@H](C(=O)N[C@@H](CCCC[N+](C)(C)C)C(=O)NC(CO)CO)C2CCCC2)cc1 ({Benzoyl(4-CO2Me)}-FA[Gly(cPent)][Lys(Me3)]-{NHCH(CH2OH)2}) = 6.70
CC(C)C[C@H](NC(=O)[C@H](C)NC(=O)[C@H](Cc1ccccc1)NC(=O)c1ccc(Br)cc1)C(=O)N[C@@H](CCCC[N+](C)(C)C)C(=O)N[C@@H](CO)C(N)=O ({Benzoyl(4-Br)}-FAL[Lys(Me3)]S-NH2) = 6.55
C[C@H](NC(=O)[C@H](Cc1ccccc1)NC(=O)c1ccc(Br)cc1)C(=O)N[C@H](C(=O)N[C@@H](CCCC[N+](C)(C)C)C(=O)NCCN)C1CCCC1 ({Benzoyl(4-Br)}-FA[Gly(cPent)][Lys(Me3)]-Ethylenediamine) = 6.66

[A] COC(=O)c1ccc(C(=O)N[C@@H](Cc2ccccc2)C(=O)N[C@@H](C)C(=O)N[C@H](C(=O)N[C@@H](CCCC[N+](C)(C)C)C(=O)N[C@@H](CO)C(N)=O)C2CCCC2)cc1 ({Benzoyl(4-CO2Me)}-FA[Gly(cPent)][Lys(Me3)]S-NH2)
[B] CC(=O)N[C@@H](Cc1ccccc1)C(=O)N[C@@H](C)C(=O)N[C@@H](CC(C)C)C(=O)N[C@@H](CCCC[N+](C)(C)C)C(=O)N[C@H](CO)C(N)=O
In: Which of the two gives a bigger number for pKd: A or B ? Write down the label of the entry you select.
Out: A

----------
Non-standard residues stand in square brackets, D forms with d. Residues, ends and D or L forms follow the SMILES beside them. *: point of attachment. Benzoyl(4-CO2Me) = COC(=O)c1ccc(C(=O)*)cc1; Benzoyl(4-COOH) = O=C(O)c1ccc(C(=O)*)cc1; Lys(Me3) = C[N+](C)(C)CCCC[C@H](N)C(=O)O; X3 = COC(=O)c1ccc(S(=O)(=O)*)cc1; X6 = O=C(O)c1ccc(S(=O)(=O)*)cc1; Nicotinoyl = O=C(c1cccnc1)*; X10 = O=C(Cc1ccccc1Br)*; NHCH2CH2OH = OCCN*
# Chromobox protein homolog 7 (Homo sapiens, UniProt O95931): IC50 values follow
Measured Endpoint: IC50 (µM)

CC(C)C[C@H](NC(=O)[C@H](C)NC(=O)CNS(=O)(=O)c1ccc(C(=O)O)cc1)C(=O)N[C@@H](CCCC[N+](C)(C)C)C(=O)N[C@@H](CO)C(N)=O (X6-GAL[Lys(Me3)]S-NH2) = 53
CC(C)C[C@H](NC(=O)[C@H](C)NC(=O)[C@H](Cc1ccccc1)NC(=O)c1ccc(C(=O)O)cc1)C(=O)N[C@@H](CCCC[N+](C)(C)C)C(=O)N[C@@H](CO)C(N)=O ({Benzoyl(4-COOH)}-FAL[Lys(Me3)]S-NH2) = 6.2
CC(C)C[C@H](NC(=O)[C@H](C)NC(=O)Cc1ccccc1Br)C(=O)N[C@@H](CCCC[N+](C)(C)C)C(=O)N[C@@H](CO)C(N)=O (X10-AL[Lys(Me3)]S-NH2) = 89

[A] CC(C)C[C@H](NC(=O)[C@H](C)NC(=O)c1cccnc1)C(=O)N[C@@H](CCCC[N+](C)(C)C)C(=O)N[C@@H](CO)C(N)=O (Nicotinoyl-AL[Lys(Me3)]S-NH2)
[B] COC(=O)c1ccc(C(=O)N[C@@H](Cc2ccccc2)C(=O)N[C@@H](C)C(=O)N[C@@H](CC(C)C)C(=O)N[C@@H](CCCC[N+](C)(C)C)C(=O)N[C@@H](CO)C(N)=O)cc1 ({Benzoyl(4-CO2Me)}-FAL[Lys(Me3)]S-NH2)
[C] CC[C@H](NC(=O)[C@H](Cc1ccccc1)NC(C)=O)C(=O)N[C@@H](CC(C)C)C(=O)N[C@@H](CCCC[N+](C)(C)C)C(=O)N[C@@H](CO)C(N)=O
[D] COC(=O)c1ccc(S(=O)(=O)N[C@@H](Cc2ccccc2)C(=O)N[C@@H](C)C(=O)N[C@@H](CC(C)C)C(=O)N[C@@H](CCCC[N+](C)(C)C)C(=O)N[C@@H](CO)C(N)=O)cc1 (X3-FAL[Lys(Me3)]S-NH2)
[E] CC(=O)N[C@@H](Cc1ccccc1)C(=O)N[C@@H](C)C(=O)N[C@@H](CC(C)C)C(=O)N[C@@H](CCCC[N+](C)(C)C)C(=O)NCCO (Ac-FAL[Lys(Me3)]-NHCH2CH2OH)
In: Sort low-to-high on IC50, please. Ranked list of labels, please, in the requested order.
Out: B, E, C, D, A
(B: 6.3 µM, E: 26 µM, C: 39 µM, D: 57 µM, A: 91 µM)

----------
Biological target: Chromobox protein homolog 7 (Homo sapiens, UniProt O95931)
Experiment: Displacement of FITC-labeled H3K27me3 from CBX7 (unknown origin) after 15 mins by fluorescence polarization assay
pIC50: −log10 of the molar value. Non-standard residues stand in square brackets, D forms with d. Residues, ends and D or L forms follow the SMILES beside them. *: point of attachment. Lys(Me3) = C[N+](C)(C)CCCC[C@H](N)C(=O)O; Gly(cPent) = N[C@H](C(=O)O)C1CCCC1; Hydrocinnamoyl = O=C(CCc1ccccc1)*; PhAc = O=C(Cc1ccccc1)*; Bz = O=C(c1ccccc1)*; NHPr = CCCN*
Measured Endpoint: pIC50

Worked cases, pIC50 given:
CC(C)C[C@H](NC(=O)[C@H](C)NC(=O)CCc1ccccc1)C(=O)N[C@@H](CCCC[N+](C)(C)C)C(=O)N[C@@H](CO)C(N)=O (Hydrocinnamoyl-AL[Lys(Me3)]S-NH2) = 4.59
CC(C)C[C@H](NC(=O)[C@H](C)NC(=O)CNC(=O)c1ccccc1)C(=O)N[C@@H](CCCC[N+](C)(C)C)C(=O)N[C@@H](CO)C(N)=O (Bz-GAL[Lys(Me3)]S-NH2) = 4.24
CC(=O)N[C@@H](Cc1ccccc1)C(=O)N[C@@H](C)C(=O)N[C@H](C(=O)N[C@@H](CCCC[N+](C)(C)C)C(=O)N[C@@H](CO)C(N)=O)C1CCCC1 (Ac-FA[Gly(cPent)][Lys(Me3)]S-NH2) = 5.22
CCCNC(=O)[C@H](CCCC[N+](C)(C)C)NC(=O)[C@H](CC(C)C)NC(=O)[C@H](C)NC(=O)[C@H](Cc1ccccc1)NC(C)=O (Ac-FAL[Lys(Me3)]-NHPr) = 3.99
CC(=O)N[C@@H](Cc1c[nH]c2ccccc12)C(=O)N[C@@H](C)C(=O)N[C@@H](CC(C)C)C(=O)N[C@@H](CCCC[N+](C)(C)C)C(=O)N[C@@H](CO)C(N)=O (Ac-WAL[Lys(Me3)]S-NH2) = 5.11
CSCC[C@H](NC(=O)[C@H](C)NC(=O)[C@H](Cc1ccccc1)NC(C)=O)C(=O)N[C@@H](CCCC[N+](C)(C)C)C(=O)N[C@@H](CO)C(N)=O (Ac-FAM[Lys(Me3)]S-NH2) = 4.21

[1] CC(C)C[C@H](NC(=O)[C@H](C)NC(=O)[C@H](Cc1ccccc1)NC(=O)c1ccccc1)C(=O)N[C@@H](CCCC[N+](C)(C)C)C(=O)N[C@@H](CO)C(N)=O (Bz-FAL[Lys(Me3)]S-NH2)
[2] CC(C)C[C@H](NC(=O)[C@H](C)NC(=O)Cc1ccccc1)C(=O)N[C@@H](CCCC[N+](C)(C)C)C(=O)N[C@@H](CO)C(N)=O (PhAc-AL[Lys(Me3)]S-NH2)
In: Select the item whose pIC50 value is smaller, choosing between 1 and 2 . Please reply using the label of the selected record.
Out: 2
(2: 4.64, 1: 5.06)
